Taken from patent US12448369B2.

target: Porcine ventricle myofibrils (ventricular myosin ATPase) (Sus scrofa); construct: Myofibrils from porcine cardiac muscle was isolated from the left ventricle of Yucatan minipigs; tissue Exemplar Genetics; host or cells: left ventricle of Yucatan minipigs, myofibrils prepared in house; experiment: Myofibril ATPase assay, porcine ventricle myofibrils; assay type: biochemical, porcine (Yucatan minipigs); settings: porcine ventricle myofibrils; Y75 value
Sequence (P79293 whole entry): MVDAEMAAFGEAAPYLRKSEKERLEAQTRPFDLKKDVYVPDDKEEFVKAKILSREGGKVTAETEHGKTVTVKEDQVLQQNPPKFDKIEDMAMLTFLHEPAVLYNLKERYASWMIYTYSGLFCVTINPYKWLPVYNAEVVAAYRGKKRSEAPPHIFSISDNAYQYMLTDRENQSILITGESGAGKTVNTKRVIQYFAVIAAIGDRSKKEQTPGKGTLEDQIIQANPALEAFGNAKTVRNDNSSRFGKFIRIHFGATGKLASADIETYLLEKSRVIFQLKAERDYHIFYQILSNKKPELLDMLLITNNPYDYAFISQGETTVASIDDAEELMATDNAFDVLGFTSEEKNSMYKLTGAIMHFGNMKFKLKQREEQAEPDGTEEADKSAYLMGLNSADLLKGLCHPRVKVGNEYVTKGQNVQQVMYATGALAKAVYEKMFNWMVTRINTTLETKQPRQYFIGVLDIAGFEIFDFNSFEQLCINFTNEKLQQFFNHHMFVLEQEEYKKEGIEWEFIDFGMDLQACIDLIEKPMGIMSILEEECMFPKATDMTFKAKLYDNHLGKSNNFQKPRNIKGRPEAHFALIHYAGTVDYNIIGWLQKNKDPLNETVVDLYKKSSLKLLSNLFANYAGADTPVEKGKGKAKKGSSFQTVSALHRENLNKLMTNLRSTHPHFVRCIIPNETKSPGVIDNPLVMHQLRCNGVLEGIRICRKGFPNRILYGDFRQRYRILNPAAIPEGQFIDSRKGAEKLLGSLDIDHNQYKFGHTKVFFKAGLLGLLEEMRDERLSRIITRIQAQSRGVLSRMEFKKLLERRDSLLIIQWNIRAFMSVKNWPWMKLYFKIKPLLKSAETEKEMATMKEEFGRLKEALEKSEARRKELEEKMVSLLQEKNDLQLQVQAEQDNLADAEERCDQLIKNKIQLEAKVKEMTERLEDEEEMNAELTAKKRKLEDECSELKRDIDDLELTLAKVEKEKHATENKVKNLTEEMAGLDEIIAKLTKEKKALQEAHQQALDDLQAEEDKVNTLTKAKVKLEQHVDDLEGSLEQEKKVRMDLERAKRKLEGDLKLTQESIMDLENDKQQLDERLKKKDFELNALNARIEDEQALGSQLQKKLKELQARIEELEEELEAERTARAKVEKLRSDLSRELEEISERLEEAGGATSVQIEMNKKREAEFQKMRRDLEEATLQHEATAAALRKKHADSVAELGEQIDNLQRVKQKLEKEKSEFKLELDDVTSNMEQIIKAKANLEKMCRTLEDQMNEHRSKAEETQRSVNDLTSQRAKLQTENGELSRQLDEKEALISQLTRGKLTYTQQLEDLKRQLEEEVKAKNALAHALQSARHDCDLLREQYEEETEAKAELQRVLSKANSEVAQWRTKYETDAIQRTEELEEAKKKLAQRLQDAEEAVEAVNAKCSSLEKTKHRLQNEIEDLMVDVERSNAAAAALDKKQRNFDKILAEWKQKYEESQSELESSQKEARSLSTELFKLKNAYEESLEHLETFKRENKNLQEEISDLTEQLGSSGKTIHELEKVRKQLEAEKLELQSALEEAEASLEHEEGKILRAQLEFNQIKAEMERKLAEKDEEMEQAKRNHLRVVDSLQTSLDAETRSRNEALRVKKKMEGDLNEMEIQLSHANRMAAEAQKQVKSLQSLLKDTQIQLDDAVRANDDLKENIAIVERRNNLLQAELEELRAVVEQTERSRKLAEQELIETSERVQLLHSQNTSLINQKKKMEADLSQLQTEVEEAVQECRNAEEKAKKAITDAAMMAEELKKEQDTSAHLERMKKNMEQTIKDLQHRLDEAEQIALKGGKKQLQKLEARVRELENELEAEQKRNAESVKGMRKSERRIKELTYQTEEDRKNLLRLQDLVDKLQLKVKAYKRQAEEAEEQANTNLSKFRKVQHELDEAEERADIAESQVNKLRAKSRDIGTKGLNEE
The entries below are paired with their reported Ventricular EC25.

COMPOUND	MEASUREMENT_TARGET	Ventricular EC25
C[C@H](NC(=O)[C@H](C)c1c(C(F)(F)F)c2cnccc2[nH]c1=O)c1ccc(F)cc1F (single isomer, unassigned)	Porcine ventricle myofibrils (ventricular myosin ATPase) (Sus scrofa)	22.60 µM
COc1ccc([C@H](C)NC(=O)Cc2c(C)c3c(C)nccc3[nH]c2=O)cc1 (single isomer, unassigned)	Porcine ventricle myofibrils (ventricular myosin ATPase) (Sus scrofa)	100.00 µM
Cc1nncc2[nH]c(=O)c(CC(=O)N[C@H](C)c3ccc(F)cc3F)cc12	Porcine ventricle myofibrils (ventricular myosin ATPase) (Sus scrofa)	100 µM
Cc1c(CC(=O)N[C@@H](C)c2ccc(F)cc2F)c(=O)[nH]c2ccc(C#N)nc12	Porcine ventricle myofibrils (ventricular myosin ATPase) (Sus scrofa)	5.52 µM
Cc1c([C@H](C)C(=O)N[C@@H](C)c2ccc(C#N)cc2F)c(=O)[nH]c2ccnc(C#N)c12 (single isomer, unassigned)	Porcine ventricle myofibrils (ventricular myosin ATPase) (Sus scrofa)	0.55 µM
Cc1nccc2[nH]c(=O)c(CC(=O)N[C@H](C)c3cccc(O)c3)c(C)c12 (single isomer, unassigned)	Porcine ventricle myofibrils (ventricular myosin ATPase) (Sus scrofa)	100.00 µM
Cc1nccc2[nH]c(=O)c(CC(=O)Nc3c[nH]c4cc(F)cc(F)c34)c(C)c12	Porcine ventricle myofibrils (ventricular myosin ATPase) (Sus scrofa)	100.00 µM

====

test system: Rabbit Psoas myofibrils (skeletal myosin ATPase); experiment: Myofibril ATPase assay, rabbit psoas (skeletal) myofibrils; assay type: biochemical; conditions: Y75 value (no ‡ mark); rabbit psoas myofibrils
Classification field: enter Condition met for Skeletal EC25 values not below 20 µM, Condition not met for values below it.

COMPOUND	CATEGORY
Cc1c(CC(=O)N[C@@H](C)c2ncc(C#N)cn2)c(=O)[nH]c2ccc(F)cc12	Condition met
Cc1c(CC(=O)N[C@H](C)c2ccc(C#N)cn2)c(=O)[nH]c2ccc(F)c(C3CC3)c12	Condition not met
COc1ccc2[nH]c(=O)c(CC(=O)N[C@@H](C)c3ncc(F)cc3F)cc2c1C (single isomer, unassigned)	Condition not met
C[C@H](NC(=O)C1(c2cc3c(F)c(F)ccc3[nH]c2=O)CC1)c1nccc(C#N)n1 (single isomer, unassigned)	Condition met
C[C@H](NC(=O)[C@H](C)c1c(C(F)(F)F)c2cc(F)ccc2[nH]c1=O)c1ccc(F)cc1F (single isomer, unassigned) [compound 58]	Condition not met
Cc1c(C(F)(F)C(=O)N[C@H](C)c2cnc(C#N)cn2)c(=O)[nH]c2ccc(F)cc12 (single isomer, unassigned) [compound 4827]	Condition not met

====

tested on: Rabbit Psoas myofibrils (skeletal myosin ATPase); experiment: Myofibril ATPase assay, rabbit psoas (skeletal) myofibrils; assay type: biochemical; conditions: Y75 value (no ‡ mark); rabbit psoas myofibrils
MEASURE_NAME: Skeletal EC25 (nM)

COMPOUND	OBSERVED_RESULT
Cc1c(CC(=O)N[C@H](C)c2ncc(C#N)cc2F)c(=O)[nH]c2ccc(F)c(C3CC3)c12	140
Cc1nc(C#N)cnc1[C@@H](C)NC(=O)Cc1c(C)c2c(C#N)c(F)ccc2[nH]c1=O (single isomer, unassigned)	110
Cc1c(C(F)(F)C(=O)N[C@@H](C)c2ncc(C#N)cc2F)c(=O)[nH]c2ccc(F)c(C#N)c12 (single isomer, unassigned)	20
Cc1cc([C@H](C)NC(=O)Cc2c(O)c3c(C)c(F)ccc3[nH]c2=O)ncc1F	100000
N#Cc1ccc([C@H](CO)NC(=O)Cc2c(C3CC3)c3cc(F)ccc3[nH]c2=O)c(F)c1	100000
N#Cc1cnc2c(c1)CC[C@@H]2NC(=O)Cc1cc2c(F)c(F)ccc2[nH]c1=O (single isomer, unassigned)	100000
C[C@@H](NC(=O)Cc1cc2c(C#N)cccc2[nH]c1=O)c1ncc(C#N)cn1 (single isomer, unassigned)	790
Cc1nc(C#N)cnc1[C@@H](C)NC(=O)C(F)(F)c1c(C)c2cc(F)ccc2[nH]c1=O (single isomer, unassigned)	330
Cc1c(C(F)(F)C(=O)N[C@H](C)c2ncc(C#N)cc2F)c(=O)[nH]c2cccc(F)c12 (single isomer, unassigned)	110
Cc1c(C(F)(F)C(=O)N[C@H](C)c2ccc(F)cc2F)c(=O)[nH]c2ccc(F)cc12	1040
C[C@H](NC(=O)[C@@H](C)c1cc2c(Cl)c(O)ccc2[nH]c1=O)c1ccc(F)cc1F (single isomer, unassigned)	74460
C[C@H](NC(=O)Cc1c(C2CC2)c2c(F)c(F)ccc2[nH]c1=O)c1ccc(C#N)nn1 (single isomer, unassigned)	150
C[C@H](NC(=O)Cc1cc2c(Cl)c(O)ccc2[nH]c1=O)c1ccc(F)cc1F	3550
Cc1c(CC(=O)N[C@@H](C)c2ccc(F)cc2F)c(=O)[nH]c2ccc(F)c(C(F)(F)F)c12	10

====

molecular target: Porcine ventricle myofibrils (ventricular myosin ATPase) (Sus scrofa); construct: Myofibrils from porcine cardiac muscle was isolated from the left ventricle of Yucatan minipigs; tissue Exemplar Genetics; host or cells: left ventricle of Yucatan minipigs, myofibrils prepared in house; assay: Myofibril ATPase assay, porcine ventricle myofibrils; type: biochemical, porcine (Yucatan minipigs); settings: Y75 value (no ‡ mark); porcine ventricle myofibrils
MEASURE_NAME: Ventricular EC25 (µM)

COMPOUND	MEASURE_NAME	RESULT_UNITS	OBSERVED_RESULT
Cc1c(F)ccc2[nH]c(=O)c(CC(=O)N[C@@H](C)c3ncc(C#N)cc3F)c(C#N)c12 [compound 1150]	Ventricular EC25	µM	0.05
Cc1c(CC(=O)N[C@H](C)c2ncc(C#N)cc2F)c(=O)[nH]c2cccc(C#N)c12 [compound 1080]	Ventricular EC25	µM	0.36
C[C@H](NC(=O)Cc1cc2cc(F)c(F)cc2[nH]c1=O)c1cnc(C#N)nc1 [compound 1075]	Ventricular EC25	µM	15.41
C[C@H](NC(=O)[C@H](C)c1cc2c(F)cccc2[nH]c1=O)c1ccc(F)cc1F (single isomer, unassigned) [compound 103]	Ventricular EC25	µM	100.00
C[C@@H](NC(=O)C1(c2cc3c(F)c(F)ccc3[nH]c2=O)CC1)c1nccc(C#N)n1 (single isomer, unassigned) [compound 2505]	Ventricular EC25	µM	100.00
N#Cc1cnc2c(c1)CC[C@H]2NC(=O)C1(c2cc3c(F)c(F)ccc3[nH]c2=O)CC1 (single isomer, unassigned) [compound 4823]	Ventricular EC25	µM	100.00
Cc1c(CC(=O)N[C@@H](C)c2ccc(C#N)cc2F)c(=O)[nH]c2ccc(F)c(C#N)c12 [compound 68]	Ventricular EC25	µM	0.07

====

tested on: Porcine atria myofibrils (atrial myosin ATPase); test: Myofibril ATPase assay, porcine atria myofibrils; format: biochemical; settings: Y75 value (no ‡ mark); porcine atria myofibrils
Decide using Atrial EC25 alone. Strictly below 0.9 µM: TRUE. Equal to or above 0.9 µM: FALSE.

COMPOUND	CATEGORY
Cc1nc([C@@H](C)NC(=O)Cc2c(C)c3c(C)c(F)ccc3[nH]c2=O)ncc1C#N (single isomer, unassigned)	FALSE
Cc1cc([C@H](C)NC(=O)Cc2c(C)c3cc(F)ccc3[nH]c2=O)ncc1F	FALSE
Cc1nc(C#N)cnc1[C@H](C)NC(=O)C1(c2cc3c(F)c(F)ccc3[nH]c2=O)CC1 (single isomer, unassigned)	TRUE
Cc1c(C2(C(=O)N[C@@H](C)c3ncc(C#N)cc3F)CC2)c(=O)[nH]c2ccc(F)c(C(F)(F)F)c12 (single isomer, unassigned)	TRUE
Cc1c(C2(C(=O)N[C@@H](C)c3nccc(C#N)n3)CC2)c(=O)[nH]c2ccc(F)cc12 (single isomer, unassigned)	FALSE

====

test system: Porcine atria myofibrils (atrial myosin ATPase); assay: Myofibril ATPase assay, porcine atria myofibrils; assay type: biochemical; details: porcine atria myofibrils; Y75 value (75% activity relative to no compound)
Entries and their Atrial EC25
MEASURE_NAME: Atrial EC25 (µM)

COMPOUND	MEASURE_NAME	OBSERVED_RESULT
Cc1c(CC(=O)N[C@@H](C)c2ccc(C#N)cn2)c(=O)[nH]c2ccc(OC(F)(F)F)nc12 [compound 450]	Atrial EC25	100.00
Cc1c(CC(=O)N[C@@H](C)c2cnc(C#N)nc2)c(=O)[nH]c2ccc(C(F)(F)F)nc12 [compound 458]	Atrial EC25	0.79
Cc1nccc2[nH]c(=O)c(CC(=O)N[C@@H](C)c3ccc(C#N)cc3F)c(C)c12 (single isomer, unassigned) [compound 256]	Atrial EC25	0.08
Cc1nccc2[nH]c(=O)c(CC(=O)N[C@H]3CCc4cc(F)cc(F)c43)c(C)c12 [compound 501]	Atrial EC25	76
